Test system: NF-κB
Test: NF-κB reporter gene assay (TNF-α stimulated A549/NF-κB-luc cells)
Assay type: cell-based
Conditions: Homo sapiens, TNF-α stimulation
assayEndpoint: pIC50
Just so you know, pIC50 here is -log10 of the concentration in molar units; reply with that number alone.

Worked set:
# molecule, pIC50
rows = [
    ("Cc1sc2c(c1C)C(c1ccccc1)=NNc1nnc(C)n1-2 [Example 27]", 5.51),
    ("Cc1sc2c(c1C)C(c1ccc(Cl)cc1)=NN(Cc1cccc(O)c1)c1nnc(C)n1-2 [Example 53]", 5.53),
]

Exercise: // lookup pIC50 for Cc1sc2c(c1C)C(c1ccc(Cl)cc1)=NN(Cc1cncc(Cl)c1)c1nnc(C)n1-2 [Example 39]
Solution: 6.21

Exercise: Sample Cc1sc2c(c1C)C(c1ccc(Cl)cc1)=NN(Cc1ccccn1)c1nnc(C)n1-2 [Example 5] — what was its pIC50?
Solution: 7.56

* * *

Tested on: NF-κB
Assay: NF-κB reporter gene assay (TNF-α stimulated A549/NF-κB-luc cells)
Format: cell-based
Conditions: Homo sapiens, TNF-α stimulation
assayEndpoint: IC50 (nM)
Entry rule: numbers only, all in nM.

Past entries and their recorded results:
# compound, unitDescriptor, IC50
data = [
    ("Cc1sc2c(c1C)C(c1ccc(N)cc1)=NN(Cc1cccnc1)c1nnc(CO)n1-2", "nM", 4830),
    ("COc1cccc(CN2N=C(c3ccccc3)c3c(sc(C)c3C)-n3c(C)nnc32)c1", "nM", 87.2),
    ("Cc1sc2c(c1C)C(c1ccccc1)=NN(Cc1ccccn1)c1nnc(C)n1-2", "nM", 150),
    ("CCOc1ncccc1CN1N=C(c2ccc(Cl)cc2)c2c(sc(C)c2C)-n2c(C)nnc21", "nM", 1390),
    ("Cc1ccc(CN2N=C(c3ccc(Cl)cc3)c3c(sc(C)c3C)-n3c(C)nnc32)cc1", "nM", 233),
]

Exercise: # input molecule: COc1ccc(CN2N=C(c3ccc(Cl)cc3)c3ccsc3-n3c(C)nnc32)cc1 ; wanted: its IC50
Solution: 728

Exercise: Need IC50, item COc1cccc(CN2N=C(c3ccc(Cl)cc3)c3ccsc3-n3c(C)nnc32)c1
Solution: 5490

* * *

System: NF-κB
Test: NF-κB reporter gene assay (TNF-α stimulated A549/NF-κB-luc cells)
Type: cell-based
Details: Homo sapiens, TNF-α stimulation
Reported pIC50 values are given for each entry in this list.
Lab note: report pIC50 as minus log10 of the concentration in molar units, number only.

Below, 3 compounds whose answers are already recorded.
# compound, testedSystem, pIC50
records = [
    ("Cc1nnc2n1-c1scc(CCO)c1C(c1ccc(N)cc1)=NN2Cc1cccnc1", "NF-κB", 5.40),
    ("Cc1sc2c(c1C)C(c1ccc(Cl)cc1)=NN(Cc1cccc(N(C)C)c1)c1nnc(C)n1-2", "NF-κB", 5.56),
    ("COC(=O)c1ncccc1CN1N=C(c2ccc(Cl)cc2)c2c(sc(C)c2C)-n2c(C)nnc21", "NF-κB", 5.55),
]

Exercise: Query: pIC50; subject: COc1ccc(CN2N=C(c3ccc(Cl)cc3)c3c(sc(C)c3C)-n3c(C)nnc32)cn1
Solution: 6.45

Exercise: Can you share its pIC50? I mean this compound: Cc1sc2c(c1C)C(c1ccc(Cl)cc1)=NN(Cc1cccnc1Br)c1nnc(C)n1-2
Solution: 6.13

Exercise: Please look up its pIC50: COc1ccncc1CN1N=C(c2ccc(Cl)cc2)c2c(sc(C)c2C)-n2c(C)nnc21
Solution: 6.58

Exercise: Entry Cc1sc2c(c1C)C(c1ccc(Cl)cc1)=NN(Cc1cnccc1Cl)c1nnc(C)n1-2 : reported pIC50 = ?
Solution: 5.74

Exercise: pIC50 lookup needed for CC(=O)Nc1ccc(C2=NNc3nnc(C)n3-c3sc(C)c(C)c32)cc1 , thanks.
Solution: 7.02

* * *

Item-by-item account of pIC50
Tested on: NF-κB
Experiment: NF-κB reporter gene assay (TNF-α stimulated A549/NF-κB-luc cells)
Format: cell-based
Conditions: Homo sapiens, TNF-α stimulation
// pIC50 here means minus log10 of the molar concentration (mol/L)

Exercise: Please look up its pIC50: COc1cccc(CN2N=C(c3ccc(Cl)cc3)c3c(sc(C)c3C)-n3c(C)nnc32)n1 [Example 46]
Solution: 6.17

Exercise: Item under review: Cc1nnc2n1-c1sccc1C(c1ccc(Cl)cc1)=NN2Cc1ccncc1 [Example 63] . Reported pIC50?
Solution: 5.28

Exercise: Which measured pIC50 value corresponds to Cc1sc2c(c1C)C(c1ccc(Cl)cc1)=NN(Cc1ccc(F)nc1)c1nnc(C)n1-2 [Example 26] ?
Solution: 7.91

Exercise: What does the data say about its pIC50? Entry: Cc1sc2c(c1C)C(c1ccc(Cl)cc1)=NN(Cc1cccnc1C#N)c1nnc(C)n1-2 [Example 77]
Solution: 5.71

Exercise: Recorded pIC50 for Cc1sc2c(c1C)C(c1ccc(Cl)cc1)=NN(Cc1ccc(Cl)cn1)c1nnc(C)n1-2 [Example 36] , please?
Solution: 6.40

Exercise: Sample Cc1sc2c(c1C)C(c1ccc(Cl)cc1)=NN(Cc1ccccc1F)c1nnc(C)n1-2 [Example 8] — what was its pIC50?
Solution: 6.98
